B1: PPEF2 (parent)
chain: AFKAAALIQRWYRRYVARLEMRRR

# Variants of: B1
# assay-protocol: protein stability index of a GFP-peptide fusion (GPS, HEK-293T) (PSI 1-6); higher = more stable;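 further: lentivirally expressed fusions sorted by FACS into six bins by GFP to DsRed ratio, PSI derived from sequencing read proportions per bin multiplied by bin number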
# cond: c terminus: a fixed tail appended
quantity-name: protein stability index

{"columns": ["mutation-key", "recorded-number"],
 "data": [
  ["K3E", 3.71],
  ["Y12N", 1.62],
  ["L7Q", 4.96],
  ["Y15Q", 4.44],
  ["R23P", 2.36],
  ["Y12C", 2.14],
  ["M21F", 3.32],
  ["Y12P", 2.44],
  ["M21K", 2.69],
  ["Q9C", 2.71]
]}
